Give Control for every item shown.
Assay: Percent inhibition of lactic acid production by the compound at 5 p.p.m.
Format: functional
Design: scale not given: the % may be the effect or the level left
One number for each entry, in %.

Example results:
compound	Control / %
Cc1ccc(/C=C/NC(=O)NC2C(=O)N3C2SC(C)(C)[C@@H]3C(=O)[O-])cc1.[Na+] (some centres undefined)	2
COc1cc(/C=C/NC(=O)NC2C(=O)N3C2SC(C)(C)[C@@H]3C(=O)[O-])cc(OC)c1OC.[Na+] (some centres undefined)	2

Consider the following items and state reported Control for each.
1. CC1(C)SC2C(NC(=O)N/C=C/c3ccc(Cl)c(Cl)c3)C(=O)N2[C@H]1C(=O)[O-].[Na+] (some centres undefined)
2. CC(C)NC(=O)NC1C(=O)N2C1SC(C)(C)[C@@H]2C(=O)[O-].[Na+] (some centres undefined)

## Output
[106, 119]
